Taken from ChEMBL document CHEMBL5058577.

# Population Hoechst High Intensity Objects (%) annotations
tested on: Fibroblast; test: Multiplex assay against human fibroblast; type: toxicity, cell-based; conditions: 12 h, 1 µM, compound concentration 1 uM, replicate 1
Write it as a number; the unit % goes unstated.

q: Quote Population Hoechst High Intensity Objects (%) reported for Cc1c(Cc2ccc3ccccc3n2)c2cc(F)ccc2n1CC(=O)O [TIMAPIPRANT] please.
a: 5

q: Using known records, supply Population Hoechst High Intensity Objects (%) for COc1ccc2c(c1OCc1ccccc1)C[C@@H](C(=O)O)N(C(=O)C(c1ccccc1)c1ccccc1)C2 [OLODANRIGAN]
a: 7

q: Give the reported Population Hoechst High Intensity Objects (%) for this compound. `Cc1nn(C)c2nc(NNC(=O)Nc3cc(Cl)nc(Cl)c3)cc(C(C)C)c12`
a: 3

q: // Input: `Cc1cc(=O)n(C)c2cc(N3C(=O)CC[C@H](NS(=O)(=O)CC(C)C)[C@H]3c3ccc(Cl)cc3)ccc12` . Output its Population Hoechst High Intensity Objects (%) only.
a: 2
